Test system: HCT-116
experimental_protocol: In vitro inhibition, CellTiter-Glo (CTG) assay, 72 hr exposure
Format: cell-based
cond: HCT-116, 72 hr
Some compounds, each annotated with its measured IC50.
readout: IC50

>>> recorded_value("CC(C)OC(=O)[C@H](C)NP(=O)(OC[C@H]1S[C@@H](n2ccc(N)nc2=O)[C@@H](O)[C@@H]1O)Oc1ccccc1 (single isomer, unassigned) [Compound 101b (diastereoisomer 2)]")
"1 to 10 µM"
>>> recorded_value("CC(C)OC(=O)[C@H](C)NP(=O)(OC[C@H]1S[C@@H](n2ccc(N)nc2=O)[C@@H](O)[C@@H]1O)Oc1ccccc1 (single isomer, unassigned) [Compound 101b (diastereoisomer 1)]")
"10 to 100 µM"
>>> recorded_value("Nc1ccn([C@@H]2S[C@H](COP(=O)(NCc3ccccc3)OCc3ccc([N+](=O)[O-])o3)[C@@H](O)[C@@H]2O)c(=O)n1 (single isomer, unassigned) [Compound 103 (diastereoisomer 1)]")
"10 to 100 µM"
>>> recorded_value("Nc1ccn([C@@H]2S[C@H](COP(=O)(NCc3ccccc3)OCc3ccc([N+](=O)[O-])o3)[C@@H](O)[C@@H]2O)c(=O)n1 (single isomer, unassigned) [Compound 103 (diastereoisomer 2)]")
"1 to 10 µM"
>>> recorded_value("CC(C)(C)SSCCOP(=O)(NCc1ccccc1)OC[C@H]1S[C@@H](n2ccc(N)nc2=O)[C@@H](O)[C@@H]1O (single isomer, unassigned) [Compound 105 (diastereoisomer 2)]")
"10 to 100 µM"
>>> recorded_value("CCOC(=O)COP(=O)(N[C@@H](CC(C)C)C(=O)OCC)OC[C@H]1S[C@@H](n2ccc(N)nc2=O)[C@@H](O)[C@@H]1O (single isomer, unassigned) [Compound 102b (diastereoisomer 2)]")
"10 to 100 µM"
>>> recorded_value("COC(=O)COP(=O)(N[C@@H](CC(C)C)C(=O)OC)OC[C@H]1S[C@@H](n2ccc(N)nc2=O)[C@@H](O)[C@@H]1O (single isomer, unassigned) [Compound 104b (diastereoisomer 2)]")
"10 to 100 µM"

---

Tested on: PANC-1
experimental_protocol: In vitro inhibition, CellTiter-Glo (CTG) assay, 72 hr exposure
Type: cell-based
cond: Homo sapiens, PANC-1, 72 hr
readout: IC50

>>> recorded_value("Cn1c(COP(=O)(NCc2ccccc2)O[C@H]2[C@H](O)[C@H](n3ccc(N)nc3=O)S[C@@H]2CO)cnc1[N+](=O)[O-] (mixture of isomers) [Compound 106b (mixture of diastereoisomers)]")
"10 to 100 µM"
>>> recorded_value("CC(=O)OC[C@H](C)NP1(=O)OC[C@H]2S[C@@H](n3ccc(N)nc3=O)[C@@H](O)[C@@H]2O1 (single isomer, unassigned) [Compound 108b (diastereoisomer 1)]")
"10 to 100 µM"
>>> recorded_value("COC(=O)COP(=O)(N[C@@H](CC(C)C)C(=O)OC)OC[C@H]1S[C@@H](n2ccc(N)nc2=O)[C@@H](O)[C@@H]1O (single isomer, unassigned) [Compound 104b (diastereoisomer 1)]")
"10 to 100 µM"
>>> recorded_value("Nc1ccn([C@@H]2S[C@H](COP(=O)(NCc3ccccc3)OCc3ccc([N+](=O)[O-])o3)[C@@H](O)[C@@H]2O)c(=O)n1 (single isomer, unassigned) [Compound 103 (diastereoisomer 1)]")
"10 to 100 µM"
>>> recorded_value("Nc1ccn([C@@H]2S[C@H](COP(=O)(O)NCc3ccccc3)[C@@H](O)[C@@H]2O)c(=O)n1")
"10 to 100 µM"

---

System: HL-60
experimental_protocol: In vitro inhibition, CellTiter-Glo (CTG) assay, 72 hr exposure
Type: cell-based
cond: HL-60, 72 hr
Some molecules, each annotated with its measured IC50.
readout: IC50

>>> recorded_value("Nc1ccn([C@@H]2S[C@H](COP(=O)(NCc3ccccc3)OCc3ccc([N+](=O)[O-])o3)[C@@H](O)[C@@H]2O)c(=O)n1 (single isomer, unassigned) [Compound 103 (diastereoisomer 2)]")
"< 1 µM"
>>> recorded_value("CC(C)(C)SSCCOP(=O)(NCc1ccccc1)OC[C@H]1S[C@@H](n2ccc(N)nc2=O)[C@@H](O)[C@@H]1O (single isomer, unassigned) [Compound 105 (diastereoisomer 1)]")
"1 to 10 µM"
>>> recorded_value("CC(C)OC(=O)[C@H](C)NP(=O)(OC[C@H]1S[C@@H](n2ccc(N)nc2=O)[C@@H](O)[C@@H]1O)Oc1ccccc1 (single isomer, unassigned) [Compound 101b (diastereoisomer 1)]")
"1 to 10 µM"
>>> recorded_value("COC(=O)COP(=O)(N[C@@H](CC(C)C)C(=O)OC)OC[C@H]1S[C@@H](n2ccc(N)nc2=O)[C@@H](O)[C@@H]1O (single isomer, unassigned) [Compound 104b (diastereoisomer 2)]")
"< 1 µM"
>>> recorded_value("CCOC(=O)COP(=O)(N[C@@H](CC(C)C)C(=O)OCC)OC[C@H]1S[C@@H](n2ccc(N)nc2=O)[C@@H](O)[C@@H]1O (single isomer, unassigned) [Compound 102b (diastereoisomer 2)]")
"1 to 10 µM"
>>> recorded_value("CC(C)(C)SSCCOP(=O)(NCc1ccccc1)OC[C@H]1S[C@@H](n2ccc(N)nc2=O)[C@@H](O)[C@@H]1O (single isomer, unassigned) [Compound 105 (diastereoisomer 2)]")
"10 to 100 µM"

---

Some compounds, each annotated with its measured pIC50.
System: HL-60
experimental_protocol: In vitro inhibition, CellTiter-Glo (CTG) assay, 72 hr exposure
Type: cell-based
cond: Homo sapiens, HL-60, 72 h
pIC50: −log10 of the molar value.
readout: pIC50

>>> recorded_value("Cn1c(COP(=O)(NCc2ccccc2)O[C@H]2[C@H](O)[C@H](n3ccc(N)nc3=O)S[C@@H]2CO)cnc1[N+](=O)[O-] (mixture of isomers) [Compound 106b (mixture of diastereoisomers)]")
"4.00 to 5.00"
>>> recorded_value("Nc1ccn([C@@H]2S[C@H](COP(=O)(NCc3ccccc3)OCc3ccc([N+](=O)[O-])o3)[C@@H](O)[C@@H]2O)c(=O)n1 (single isomer, unassigned) [Compound 103 (diastereoisomer 1)]")
"> 6.00"
>>> recorded_value("CC(=O)OC[C@H](C)NP1(=O)OC[C@H]2S[C@@H](n3ccc(N)nc3=O)[C@@H](O)[C@@H]2O1 (single isomer, unassigned) [Compound 108b (diastereoisomer 1)]")
"4.00 to 5.00"

---

System: HL-60
experimental_protocol: In vitro inhibition, CellTiter-Glo (CTG) assay, 72 hr exposure
Format: cell-based
cond: Homo sapiens, HL-60, 72 hr
pIC50: −log10 of the molar value.
readout: pIC50

>>> recorded_value("CC(C)OC(=O)[C@H](C)NP(=O)(OC[C@H]1S[C@@H](n2ccc(N)nc2=O)[C@@H](O)[C@@H]1O)Oc1ccccc1 (single isomer, unassigned) [Compound 101b (diastereoisomer 2)]")
"5.00 to 6.00"

---

Some molecules, each annotated with its measured pIC50.
System: CCRF-CEM-cytarabine resistant
experimental_protocol: In vitro inhibition, CellTiter-Glo (CTG) assay, 72 hr exposure
Assay type: cell-based
pIC50: −log10 of the molar value.
readout: pIC50

>>> recorded_value("CC(=O)OC[C@H](C)NP1(=O)OC[C@H]2S[C@@H](n3ccc(N)nc3=O)[C@@H](O)[C@@H]2O1 (single isomer, unassigned) [Compound 108b (diastereoisomer 1)]")
"4.00 to 5.00"
>>> recorded_value("CCOC(=O)COP(=O)(N[C@@H](CC(C)C)C(=O)OCC)OC[C@H]1S[C@@H](n2ccc(N)nc2=O)[C@@H](O)[C@@H]1O (single isomer, unassigned) [Compound 102b (diastereoisomer 2)]")
"4.00 to 5.00"
>>> recorded_value("COC(=O)COP(=O)(N[C@@H](CC(C)C)C(=O)OC)OC[C@H]1S[C@@H](n2ccc(N)nc2=O)[C@@H](O)[C@@H]1O (single isomer, unassigned) [Compound 104b (diastereoisomer 1)]")
"4.00 to 5.00"
>>> recorded_value("Cn1c(COP(=O)(NCc2ccccc2)O[C@H]2[C@H](O)[C@H](n3ccc(N)nc3=O)S[C@@H]2CO)cnc1[N+](=O)[O-] (mixture of isomers) [Compound 106b (mixture of diastereoisomers)]")
"4.00 to 5.00"
>>> recorded_value("COC(=O)COP(=O)(N[C@@H](CC(C)C)C(=O)OC)OC[C@H]1S[C@@H](n2ccc(N)nc2=O)[C@@H](O)[C@@H]1O (single isomer, unassigned) [Compound 104b (diastereoisomer 2)]")
"4.00 to 5.00"
>>> recorded_value("CCOC(=O)COP(=O)(N[C@@H](CC(C)C)C(=O)OCC)OC[C@H]1S[C@@H](n2ccc(N)nc2=O)[C@@H](O)[C@@H]1O (single isomer, unassigned) [Compound 102b (diastereoisomer 1)]")
"4.00 to 5.00"
>>> recorded_value("CC(C)OC(=O)[C@H](C)NP(=O)(OC[C@H]1S[C@@H](n2ccc(N)nc2=O)[C@@H](O)[C@@H]1O)Oc1ccccc1 (single isomer, unassigned) [Compound 101b (diastereoisomer 2)]")
"5.00 to 6.00"
>>> recorded_value("Nc1ccn([C@@H]2S[C@H](COP(=O)(O)NCc3ccccc3)[C@@H](O)[C@@H]2O)c(=O)n1 [Compound 107]")
"4.00 to 5.00"
>>> recorded_value("Nc1ccn([C@@H]2S[C@H](COP(=O)(NCc3ccccc3)OCc3ccc([N+](=O)[O-])o3)[C@@H](O)[C@@H]2O)c(=O)n1 (single isomer, unassigned) [Compound 103 (diastereoisomer 1)]")
"5.00 to 6.00"
>>> recorded_value("CC(C)(C)SSCCOP(=O)(NCc1ccccc1)OC[C@H]1S[C@@H](n2ccc(N)nc2=O)[C@@H](O)[C@@H]1O (single isomer, unassigned) [Compound 105 (diastereoisomer 1)]")
"4.00 to 5.00"
>>> recorded_value("Nc1ccn([C@@H]2S[C@H](COP(=O)(NCc3ccccc3)OCc3ccc([N+](=O)[O-])o3)[C@@H](O)[C@@H]2O)c(=O)n1 (single isomer, unassigned) [Compound 103 (diastereoisomer 2)]")
"5.00 to 6.00"
>>> recorded_value("CC(C)(C)SSCCOP(=O)(NCc1ccccc1)OC[C@H]1S[C@@H](n2ccc(N)nc2=O)[C@@H](O)[C@@H]1O (single isomer, unassigned) [Compound 105 (diastereoisomer 2)]")
"4.00 to 5.00"
>>> recorded_value("CC(C)OC(=O)[C@H](C)NP(=O)(OC[C@H]1S[C@@H](n2ccc(N)nc2=O)[C@@H](O)[C@@H]1O)Oc1ccccc1 (single isomer, unassigned) [Compound 101b (diastereoisomer 1)]")
"4.00 to 5.00"

This collection of values is drawn from patent US10815264B2.
